Tested on: bFGF-induced angiogenesis
Experiment: rat cornea micropocket method (angiogenesis inhibitory activity)
Format: in vivo, Sprague-Dawley rats
Details: rats with angiogenesis inhibitory activity / rats tested; sample pellet 20 »g; judged after 10 days
Experimental: The product compound (I) obtained in the examples given below were evaluated for angiogenesis inhibitory activity by the rat cornea micropocket method. Essentially the method of Gimbrone et al. [J. National Cancer Institute, 52, 413-419 (1974)] was followed. Thus, adult male Sprague-Dawley rats (11 to 16 weeks of age) were anesthetized with nembutal and locally anesthetized by instillation of xylocaine eyedrops onto the eyeball. […]
measured.property: Inhibition rate

Qu. Enter reported Inhibition rate observed with bFGF-induced angiogenesis for "CO[C@@H]1[C@H](OCc2cccc3ccccc23)CC[C@]2(CO2)[C@H]1[C@@]1(C)O[C@@H]1CC=C(C)C"
Ans. 7/10

Qu. Likewise for "CO[C@@H]1[C@H](OC(=O)NC(=O)CSc2cccc[n+]2[O-])CC[C@]2(CO2)[C@H]1[C@@]1(C)O[C@@H]1CC=C(C)C" ?
Ans. 7/7

Qu. Likewise for "CO[C@@H]1[C@H](OC(=O)NC(=O)CSc2nnnn2CCN(C)C)CC[C@]2(CO2)[C@H]1[C@@]1(C)O[C@@H]1CC=C(C)C" ?
Ans. 6/8

Qu. Likewise for "CO[C@@H]1[C@H](OC(=O)CCCCl)CC[C@]2(CO2)[C@H]1[C@@]1(C)O[C@@H]1CC=C(C)C" ?
Ans. 4/5

###

Would you kindly list Inhibition rate for each of these compounds?
Tested on: bFGF-induced angiogenesis
Test: rat cornea micropocket method (angiogenesis inhibitory activity)
Type: in vivo, Sprague-Dawley rats
Conditions: rats with angiogenesis inhibitory activity / rats tested; sample pellet 20 »g; judged after 10 days

Qu. Dear colleague, I am looking for the recorded Inhibition rate of the following compound: "CO[C@@H]1[C@H](OC(=O)n2ccnc2)CC[C@]2(CO2)[C@H]1[C@@]1(C)O[C@@H]1CC=C(C)C"
Ans. 3/7

Qu. Likewise for "CO[C@@H]1[C@H](OC(=O)NCCCl)CC[C@]2(CO2)[C@H]1[C@@]1(C)O[C@@H]1CC=C(C)C" ?
Ans. 4/4

Qu. Likewise for "CO[C@@H]1[C@H](OC(=O)Oc2ccccc2)CC[C@]2(CO2)[C@H]1[C@@]1(C)O[C@@H]1CC=C(C)C" ?
Ans. 5/8

###

Test system: bFGF-induced angiogenesis
Test: rat cornea micropocket method (angiogenesis inhibitory activity)
Format: in vivo, Sprague-Dawley rats
Settings: rats with angiogenesis inhibitory activity / rats tested; sample pellet 20 »g; judged after 10 days
Would you kindly list Inhibition rate for each of these molecules?

Qu. Dear colleague, I am looking for the recorded Inhibition rate of the following molecule: "CO[C@@H]1[C@H](OC(=O)NC(=O)CSC)CC[C@]2(CO2)[C@H]1[C@@]1(C)O[C@@H]1CC=C(C)C"
Ans. 8/8

Qu. Likewise for "CO[C@@H]1[C@H](OC(c2ccccc2)c2ccccc2)CC[C@]2(CO2)[C@H]1[C@@]1(C)O[C@@H]1CC=C(C)C" ?
Ans. 8/13

Qu. Likewise for "CO[C@@H]1[C@H](OC(=O)N2CCCCC2)CC[C@]2(CO2)[C@H]1[C@@]1(C)O[C@@H]1CC=C(C)C" ?
Ans. 6/8

Qu. Likewise for "CO[C@@H]1[C@H](OC(=O)NC(=O)CSc2cccc3cccnc23)CC[C@]2(CO2)[C@H]1[C@@]1(C)O[C@@H]1CC=C(C)C" ?
Ans. 7/7

Qu. Likewise for "CCN1CCN(C(=O)O[C@@H]2CC[C@]3(CO3)[C@@H]([C@@]3(C)O[C@@H]3CC=C(C)C)[C@@H]2OC)CC1" ?
Ans. 8/8

Qu. Likewise for "CO[C@@H]1[C@H](OC(=O)N2CCOCC2)CC[C@]2(CO2)[C@H]1[C@@]1(C)O[C@@H]1CC=C(C)C" ?
Ans. 5/12

Qu. Likewise for "CO[C@@H]1[C@H](OC(=O)CCCC(=O)O)CC[C@]2(CO2)[C@H]1[C@@]1(C)O[C@@H]1CC=C(C)C" ?
Ans. 6/7

Qu. Likewise for "CO[C@@H]1[C@H](OC(=O)NCC[N+](C)(C)C)CC[C@]2(CO2)[C@H]1[C@@]1(C)O[C@@H]1CC=C(C)C" ?
Ans. 4/7

Where these numbers come from: patent EP0357061B1
